# SUBJECT OF TEST: 5HT2C serotonergic receptor (Homo sapiens)
# Sequence (P28335 33-458): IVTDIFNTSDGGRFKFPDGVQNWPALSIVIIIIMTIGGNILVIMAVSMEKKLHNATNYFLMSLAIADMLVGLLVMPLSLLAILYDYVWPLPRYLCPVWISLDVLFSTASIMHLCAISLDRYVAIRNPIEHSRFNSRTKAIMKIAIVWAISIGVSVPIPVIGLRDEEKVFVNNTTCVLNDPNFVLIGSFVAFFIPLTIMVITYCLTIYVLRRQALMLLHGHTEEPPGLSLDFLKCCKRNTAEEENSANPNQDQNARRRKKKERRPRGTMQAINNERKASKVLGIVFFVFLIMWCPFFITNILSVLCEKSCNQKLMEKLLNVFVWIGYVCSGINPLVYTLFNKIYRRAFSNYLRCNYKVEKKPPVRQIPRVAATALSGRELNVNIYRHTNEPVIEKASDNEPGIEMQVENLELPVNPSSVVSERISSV
MEASUREMENT NAME: pKi
Convention used: pKi is expressed as -log10 of the molar concentration.

Some solved entries appear below for comparison.
Clc1cccc(CNc2nc(Cl)nc3[nH]cnc23)c1    5.48
CNC(=O)[C@H]1O[C@@H](n2cnc3c(NCc4cccc(I)c4)ncnc32)[C@H](O)[C@@H]1O    5.27
O[C@@H]1[C@H](O)[C@@H]2C[C@@H]2[C@H]1n1cnc2c(NC(C3CC3)C3CC3)nc(Cl)nc21    5.73

Which pKi reading was recorded for the compound "O[C@@H]1[C@H](O)[C@@H]2C[C@@H]2[C@H]1n1cnc2c(NCc3cccc(Cl)c3)ncnc21" ? 5.76

Same for "CNC(=O)[C@@]12C[C@@H]1[C@@H](n1cnc3c(NCc4cccc(Cl)c4)nc(C#Cc4ccc(F)c(F)c4)nc31)[C@H](O)[C@@H]2O" 5.14
